# reported OD450; entries follow
target: T1, human MSLN-hFc protein (Acro, Cat. No. MSN-H5253) (human, UniProt Q13421 296-580); assay: ELISA on coated antigen, antibody 100 nM
T1 construct: the method names the coated protein as human MSLN-hFc (Acro); also called human MSLN full-length protein
T1 sequence (Q13421 other isoform, or with tags, fused parts or gaps limits assumed): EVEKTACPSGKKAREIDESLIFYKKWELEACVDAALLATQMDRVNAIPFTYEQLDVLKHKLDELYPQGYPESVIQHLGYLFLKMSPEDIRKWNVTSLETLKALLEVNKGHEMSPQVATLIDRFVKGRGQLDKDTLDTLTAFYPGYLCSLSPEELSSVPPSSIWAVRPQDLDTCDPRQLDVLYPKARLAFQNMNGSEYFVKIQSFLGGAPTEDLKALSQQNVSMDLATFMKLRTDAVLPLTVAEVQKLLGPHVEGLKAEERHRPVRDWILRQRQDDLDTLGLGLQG
quantityKind: OD450 (OD450)

binder	unitSpec	recordedMeasurement
F7.33.24-H4 (scFv, not shown: small tags and cut ends, also called S009-F7.33.24 humanized antibody VH1a + VL1) scFv: EVQLVQSGAEVKKPGASVKVSCKASGYTFTSYWMHWVRQAPGQRLEWMGNVNPSSGGSNYNEKFKNRVTITVDKSASTAYMELSSLRSEDTAVYYCAPHYIGSRPGFAYWGQGTLVTVSSGGGGSGGGGSGGGGSDIVMTQSPDSLAVSLGERATINCKASQNVGTNIAWYQQKPGQSPKALIYSASYRYSGVPDRFSGSGSGTDFTLTISSLQAEDVAVYYCQQYNSYPLTFGGGTKVEIK	OD450	2.95
F7.33.24-H5 (scFv, not shown: small tags and cut ends, also called S009-F7.33.24 humanized antibody VH1a + VL2) scFv: EVQLVQSGAEVKKPGASVKVSCKASGYTFTSYWMHWVRQAPGQRLEWMGNVNPSSGGSNYNEKFKNRVTITVDKSASTAYMELSSLRSEDTAVYYCAPHYIGSRPGFAYWGQGTLVTVSSGGGGSGGGGSGGGGSDIVMTQTPLSLSVTPGQPASISCKASQNVGTNIAWYLQKPGQSPQALIYSASYRYSGVPDRFSGSGSGTDFTLKISRVEAEDVGVYYCQQYNSYPLTFGGGTKVEIK	OD450	2.85
F7.33.24-H9 (scFv, not shown: small tags and cut ends, also called S009-F7.33.24 humanized antibody VH2 + VL3) scFv: EVQLVQSGAEVKKPGASVKVSCKASGYTFTSYWMHWVRQAPGQGLEWMGNVNPSNGGSNYNEKFKNRVTITVDKSASTAYMELSSLRSEDTAVYYCAPHYIGSRPGFAYWGQGTLVTVSSGGGGSGGGGSGGGGSDIVMTQTPLSLSVTPGQPASISCKASQNVGTNIAWYQQKPGQSPQALIYSASYRYSGVPDRFSGSGSGTDFTLKISRVEAEDVGVYYCQQYNSYPLTFGGGTKVEIK	OD450	2.78
F7.33.24-H2 (scFv, not shown: small tags and cut ends, also called S009-F7.33.24 humanized antibody VH1 + VL2) scFv: EVQLVQSGAEVKKPGASVKVSCKASGYTFTSYWMHWVRQAPGQRLEWMGNVNPSNGGSNYNEKFKNRVTITVDKSASTAYMELSSLRSEDTAVYYCAPHYIGSRPGFAYWGQGTLVTVSSGGGGSGGGGSGGGGSDIVMTQTPLSLSVTPGQPASISCKASQNVGTNIAWYLQKPGQSPQALIYSASYRYSGVPDRFSGSGSGTDFTLKISRVEAEDVGVYYCQQYNSYPLTFGGGTKVEIK	OD450	2.91
F7.33.24-H10 (scFv, not shown: small tags and cut ends, also called S009-F7.33.24 humanized antibody VH2a + VL1) scFv: EVQLVQSGAEVKKPGASVKVSCKASGYTFTSYWMHWVRQAPGQGLEWMGNVNPSNAGSNYNEKFKNRVTITVDKSASTAYMELSSLRSEDTAVYYCAPHYIGSRPGFAYWGQGTLVTVSSGGGGSGGGGSGGGGSDIVMTQSPDSLAVSLGERATINCKASQNVGTNIAWYQQKPGQSPKALIYSASYRYSGVPDRFSGSGSGTDFTLTISSLQAEDVAVYYCQQYNSYPLTFGGGTKVEIK	OD450	3.03

src = patent US20250250357A1
